# Tested on: SK-MEL-2 melanoma
# assayMethodText: NCI tumour cell line growth inhibition, 48 h; in the data active = GI50 below about 0.43 µM; inactive = the rest
The reply should name one outcome from y for active, n for inactive

compound	category
COC(=O)[C@H](Cc1ccc(O)cc1)NC(=O)[C@@H](OC)[C@@H]1Cc2cc3cc(OC4CC(OC5CC(O)C(O)C(C)O5)C(O)C(C)O4)c(C)c(O)c3c(O)c2C(=O)[C@H]1OC1CC(OC2CC(OC3CC(C)(O)C(O)C(C)O3)C(O)C(C)O2)C(O)C(C)O1 (some centres not stated)	y
CC(=O)[C@@]1(O)[C@H](C)C[C@H]2[C@@H]3C=C(C)C4=Cc5c(cnn5-c5ccccc5)C[C@]4(C)[C@H]3[C@@H](O)C[C@@]21C	n
CCS(=O)(=O)Nc1cccc(Nc2c3cccc(C)c3nc3c(C)cccc23)c1OC	n
CNC(=O)Oc1cc(C)c(/C=C/c2cncc(C(=O)NC)c2)c(C)c1	n
O=C(/C(=C/c1ccc([N+](=O)[O-])cc1)SCc1ccc(F)cc1)c1ccc(Cl)cc1	n
NC1=NCCN1CC(=O)O	n

// switching to the query compound
Prompt line: Per the records of this test, what outcome belongs to COc1cc(O)c2c(c1)C(=O)c1cc3c(c(O)c1C2=O)C(OC1OC(C)C(O)C(O)C1OC)C(OC)C(C)(O)C3=O (configuration not stated) ?
Response line: n

---

# Tested on: BT-549 breast
# assayMethodText: NCI tumour cell line growth inhibition, 48 h
readoutLabel: GI50

Some compounds with known GI50 results, for comparison:
chemicalSmiles	readoutLabel	result
O=S(=O)(Nc1cc(Cl)ccc1Cl)c1ccc(-c2cnc(C3CC3)o2)cc1	GI50	449 nM
COc1cc(OC)c(NC(=O)c2cc3ccccc3cc2O)cc1Cl	GI50	4330 nM
O=C(Nc1nc2ccc(F)cc2s1)c1cccnc1Nc1ccc(Cl)cc1	GI50	2770 nM

Prompt line: Need GI50 of COc1cnc2c(c1)C(=O)c1c-2n(CCCNC(C)C)c(=O)c2cc(F)ccc12 , thanks.
Response line: 655 nM

---

# Tested on: SR leukemia
# assayMethodText: NCI tumour cell line growth inhibition, 48 h; in the data active = GI50 below about 0.43 µM; inactive = the rest
The reply should name one outcome from active, inactive

Examples with answers:
compound	category
O=C(CCC(C(=O)c1ccccc1)c1ccccc1)c1ccccc1 (stereo unspecified)	inactive
O=C1OC(c2ccccc2)(c2cc(Br)c(O)c(Br)c2)c2ccccc21 (stereo unspecified)	inactive
N#CC1=C(N)NC(=S)NC12Nc1ccccc1N2	inactive

Prompt line: Per the records of this test, what outcome belongs to O=C(NCc1ccncc1)C12CC3CC(C1)CC(c1ccc(Cl)cc1)(C3)C2 ?
Response line: inactive

Prompt line: Per the records of this test, what outcome belongs to CCC[CH2][Sn]1([CH2]CCC)[O]C(=O)c2ccc(C)cc2[O]1 ?
Response line: active

Prompt line: Per the records of this test, what outcome belongs to O=C(NCc1ccco1)c1ccc(NC2=C(Cl)C(=O)N(Cc3ccccc3)C2=O)cc1 ?
Response line: inactive

---

# Test system: SF-295 CNS
# assayMethodText: NCI tumour cell line growth inhibition, 48 h
Can you tell me TGI for the items I'm about to list?

Some compounds with known TGI results, for comparison:
compound	result
CCOC(=O)/C(=C(/C)NCC(C)C)c1cc(O)c(O)c2c(C)cc(=O)[nH]c12	48.1 µM
COc1ccc(/C(CC2OC(=O)c3ccccc32)=N\NC(=O)C[N+](C)(C)C)cc1 (stereo unspecified)	> 100 µM
CC(=O)NNC(=O)C1CCCCN1 (stereo unspecified)	> 100 µM
O=[N+]([O-])c1cc(Cl)cc2cc(Br)cnc12	> 31.6 µM
O=C(NO)c1ccc(Cn2c(=O)n(-c3ccccc3F)c(=O)c3ccccc32)cc1	3.29 µM

# context switch: different compound, same TGI
Prompt line: Need TGI of CCOC(=O)[C@@H](C)C[C@H](Cc1ccccc1)NC(=O)c1csc([C@@H](C[C@H](C(C)C)N(C)C(=O)[C@H](CC)NC(=O)[C@H]2CCCCN2C)OC(C)=O)n1 , thanks.
Response line: > 4.03 µM

---

# Tested on: SN12C renal
# assayMethodText: NCI tumour cell line growth inhibition, 48 h
Can you tell me TGI for the items I'm about to list?

Some molecules with known TGI results, for comparison:
molecule	assayedSystem	TGI
S=c1nc(Cl)cc2[nH]c(Cl)cn12	SN12C renal	> 100 µM
CC(=O)O[C@H]1CCC2[C@@H]3CCC4Cc5nc6c(nc5C[C@]4(C)C3CC[C@@]21C)CC1CC[C@@H]2C(CC[C@@]3(C)C2CC[C@@H]3C(C)CCCC(C)C)[C@@]1(C)C6 (stereo not given in full)	SN12C renal	> 100 µM
Cc1ccc(-c2nc(N3CCCNCC3)c3oc(-c4ccccc4)nc3n2)cc1	SN12C renal	3.21 µM
CNC(=O)CN(C)C(=O)CCC(=O)N(C)C	SN12C renal	> 100 µM
COc1ccc(-c2c(-c3cc(OC)c(OC)c(OC)c3)noc2N)cc1	SN12C renal	> 69.8 µM

Provide the reported TGI of each entry below, same order.
1. CC(=O)c1cccc(NC(=O)C(=O)Nn2c(N)nnc2N)c1
2. OCC1OC(n2cnc3c(Cl)nc(Cl)cc32)C(O)C1O (stereo not given)
3. O=C(COC(=O)c1cccc2c(=O)c3ccccc3[nH]c12)Nc1ccccc1

Response line:
1. > 100 µM
2. > 100 µM
3. > 100 µM

Provide the reported TGI of each entry below, same order.
1. Cc1ccc(-c2nc(-c3cnccn3)n(C3OC(CO)C(O)C(O)C3O)n2)cc1 (stereo not given)
2. CC(C)(C)OC(=O)C1CC[C@@H](CC(=O)Oc2ccc([N+](=O)[O-])cc2)N1 (stereo not given in full)

Response line:
> 100 µM
> 100 µM

---

Can you tell me TGI for the items I'm about to list?
# Test system: OVCAR-3 ovarian
# assayMethodText: NCI tumour cell line growth inhibition, 48 h
One number for each entry, in µM.

Some compounds with known TGI results, for comparison:
compound	TGI [µM]
COc1ccc(OC)c(-c2cc(=O)c3c(OC)c(OC)c(OC)c(OC)c3o2)c1	75.3
COc1ccc(-c2cc(-c3ccc(O)cc3)nc3n[nH]c(N)c23)cc1	31.7

Provide the reported TGI of each entry below, same order.
1. CCc1ccc2c(c1)N(CCO)C1=C(C(=O)OC1)C2c1cccc(Cl)c1 (centres undefined)
2. CCCCC(=O)OC[n+]1ccc2c(C)c3[nH]c4ccccc4c3c(C)c2c1

Response line:
1.68
2.54

---

# System: K-562 leukemia
# assayMethodText: NCI tumour cell line growth inhibition, 48 h
readoutLabel: TGI

Some compounds with known TGI results, for comparison:
compound	TGI
CC(=O)c1cccc(NC(=O)C(=O)Nn2c(N)nnc2N)c1	> 100 µM
CCOC(=O)C1=CC(C)(C(=O)OCC)Nc2c(nc(OC)[nH]c2=O)N1 (stereo not given)	> 10 µM
COc1cc(OC)c(NC(=O)c2cc3ccccc3cc2O)cc1Cl	> 100 µM
Cc1nn(-c2nc3ccccc3s2)c2c1C(=O)c1ccccc1-2	> 100 µM
C[C@H](CCCNCCCNCCCN)[C@H]1CC[C@H]2[C@@H]3[C@H](OCCCN)C[C@H]4C[C@H](OCCCN)CC[C@]4(C)[C@H]3C[C@H](OCCCN)[C@]12C	3.6 µM
Cc1nc2c(o1)C(=O)c1ccccc1C2=Nc1ccc(N2CCOCC2)cc1	11.6 µM
C#CCCCOc1ncccn1	> 100 µM
COc1cccc(Cc2cc(=O)c3ccc(C)nc3[nH]2)c1	> 100 µM

Provide the reported TGI of each entry below, same order.
1. COc1ccc2[nH]cc(CCNC(=O)[C@](O)(Cc3cn(C)c4ccccc34)[C@@]3(O)OCC(O)C3O)c2c1 (stereo not given in full)
2. CSCCOC(=O)C(=[N+]=[N-])c1ccc([N+](=O)[O-])cc1

Response line:
1. > 100 µM
2. > 100 µM

---

# System: MDA-MB-435
# assayMethodText: NCI tumour cell line growth inhibition, 48 h
readoutLabel: TGI

Some molecules with known TGI results, for comparison:
molecule	result
Cc1ccc(-c2nc(-c3cnccn3)n(C3OC(CO)C(O)C(O)C3O)n2)cc1 (stereo not given)	> 100 µM
COC(=O)/C=C(/OC)[C@H](C)[C@H](/C=C/c1csc(-c2csc(C(C)C)n2)n1)OC	> 100 µM
CCS(=O)(=O)Nc1cccc(Nc2c3cccc(C)c3nc3c(C)cccc23)c1OC	> 86 µM
Clc1cc(Br)c2c3c(c(Br)cc(Cl)c13)C(Br)=C2Br	> 100 µM

# context switch: different molecule, same TGI
Prompt line: Need TGI of OCC1OC(n2cnc3c(Cl)nc(Cl)cc32)C(O)C1O (stereo not given) , thanks.
Response line: > 100 µM

---

# Tested on: SR leukemia
# assayMethodText: NCI tumour cell line growth inhibition, 48 h
Cut-off 40 µM on TGI, inclusive. At or above means Condition met; below means Condition not met.

Prompt line: Hi team, for C/C(=N\NC(=S)N(C)CCN(C)C(=S)N/N=C(\C)c1ccccn1)c1ccccn1 , is the recorded TGI at or above 40 µM?
Response line: Condition not met

Prompt line: Hi team, for CN(CC(=O)O)c1ncc2c(n1)-c1ccccc1OC2 , is the recorded TGI at or above 40 µM?
Response line: Condition met

Prompt line: Hi team, for CC(C)=CCN1c2ccc(Cl)cc2NC(=O)CC1C (stereo unspecified) , is the recorded TGI at or above 40 µM?
Response line: Condition met

Prompt line: Hi team, for O=C(O)[C@@H]1NC[C@H]2C(Br)=NO[C@H]21 , is the recorded TGI at or above 40 µM?
Response line: Condition met

Prompt line: Hi team, for CC(=O)NNC(=O)C1CCCCN1 (stereo unspecified) , is the recorded TGI at or above 40 µM?
Response line: Condition met

Prompt line: Hi team, for N#CCC(=O)N/N=C(\C(=O)Nc1ccc(Cl)c(Cl)c1)C1CN(c2ccccc2)N=C1N (stereo unspecified) , is the recorded TGI at or above 40 µM?
Response line: Condition met

Prompt line: Hi team, for COC(=O)/C=C(\S/C(=N\n1cc(C(=O)OC)c(C(=O)OC)c1-c1ccc(C)cc1)c1ccc(C)cc1)C(=O)OC , is the recorded TGI at or above 40 µM?
Response line: Condition met

Prompt line: Hi team, for NS(=O)(=O)c1ccc(Nc2c3ccccc3nc3c(C(=O)NCCO)cccc23)cc1 , is the recorded TGI at or above 40 µM?
Response line: Condition not met

Prompt line: Hi team, for Cc1nc2c(o1)C(=O)c1ccccc1C2=Nc1ccc(N2CCOCC2)cc1 , is the recorded TGI at or above 40 µM?
Response line: Condition not met

Prompt line: Hi team, for Cn1c2c3ccc(Cl)cc3nc-2c(Cl)c2ccccc21 , is the recorded TGI at or above 40 µM?
Response line: Condition met

Prompt line: Hi team, for O=C(CCC(C(=O)c1ccccc1)c1ccccc1)c1ccccc1 (stereo unspecified) , is the recorded TGI at or above 40 µM?
Response line: Condition met

Prompt line: Hi team, for COc1ccc(OC)c(-c2cc(=O)c3c(OC)c(OC)c(OC)c(OC)c3o2)c1 , is the recorded TGI at or above 40 µM?
Response line: Condition met

Prompt line: Hi team, for O=C(Nc1nc2ccc(F)cc2s1)c1cccnc1Nc1ccc(Cl)cc1 , is the recorded TGI at or above 40 µM?
Response line: Condition not met

Prompt line: Hi team, for C[C@]12CC[C@H](O)CC1=CC[C@@H]1[C@@H]2CC[C@]2(C)C(=N/O)/C(=C/c3ccc([N+](=O)[O-])cc3)C[C@@H]12 , is the recorded TGI at or above 40 µM?
Response line: Condition not met

Prompt line: Hi team, for COc1cc(-c2nn(-c3cccc(NC(=O)c4ccc(N5CCOCC5)c(C(F)(F)F)c4)c3)cc2-c2ccncc2)ccc1Cl , is the recorded TGI at or above 40 µM?
Response line: Condition met

Prompt line: Hi team, for C=CCSSCC=C , is the recorded TGI at or above 40 µM?
Response line: Condition met

Prompt line: Hi team, for O=C(NCc1ccncc1)C12CC3CC(C1)CC(c1ccc(Cl)cc1)(C3)C2 , is the recorded TGI at or above 40 µM?
Response line: Condition not met

Prompt line: Hi team, for [O-][n+]1onc2c1/C(=N/O)CCC2 , is the recorded TGI at or above 40 µM?
Response line: Condition met

Prompt line: Hi team, for COc1cc(OC)c(NC(=O)c2cc3ccccc3cc2O)cc1Cl , is the recorded TGI at or above 40 µM?
Response line: Condition met

Prompt line: Hi team, for CCC[CH2][Sn]1([CH2]CCC)[O]C(=O)c2ccc(C)cc2[O]1 , is the recorded TGI at or above 40 µM?
Response line: Condition not met
